molecular target: NAD-dependent protein deacylase sirtuin-5, mitochondrial (Homo sapiens); experiment: Stabilization of human SIRT5 assessed as change in melting temperature at 100 uM by thermal shift assay
Sequence (Q9NXA8 37-310 limits assumed): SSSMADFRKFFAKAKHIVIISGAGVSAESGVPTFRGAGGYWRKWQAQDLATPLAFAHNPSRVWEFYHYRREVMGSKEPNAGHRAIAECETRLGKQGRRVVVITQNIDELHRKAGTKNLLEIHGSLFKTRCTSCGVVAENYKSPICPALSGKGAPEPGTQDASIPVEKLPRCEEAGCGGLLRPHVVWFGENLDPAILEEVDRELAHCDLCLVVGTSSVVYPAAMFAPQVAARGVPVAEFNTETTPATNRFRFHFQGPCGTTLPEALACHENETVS
readout: ΔTm (°C)

Solved entries (count: 10):
INSERT INTO assay_data (compound_structure, readout, experimental_result) VALUES
  ('CC(=O)Nc1ccc(-c2csc(Nc3ccc(C(=O)O)cc3)n2)cc1', 'ΔTm', 0.53),
  ('CC(=O)Nc1ccc(-c2csc(Nc3ccc(C(=O)O)c(O)c3)n2)cc1', 'ΔTm', 1.8),
  ('O=C(O)c1ccc(NC(=S)Nc2nc(-c3ccc(F)c(F)c3)cs2)cc1O', 'ΔTm', 1.8),
  ('O=C(O)c1ccc(NC(=S)Nc2nc(-c3cccc(F)c3)cs2)cc1O', 'ΔTm', 1.22),
  ('O=C(O)c1ccc(NC(=S)Nc2nc(-c3ccc(F)c(S(=O)(=O)NC4CCCC4)c3)cs2)cc1O', 'ΔTm', 1.3),
  ('CNS(=O)(=O)c1cccc(-c2csc(NC(=S)Nc3ccc(C(=O)O)c(O)c3)n2)c1', 'ΔTm', 0.8),
  ('Cc1ccccc1-c1csc(NC(=S)Nc2ccc(C(=O)O)c(O)c2)n1', 'ΔTm', 1.1),
  ('O=C(O)c1ccc(NC(=S)Nc2nc(-c3ccc(C(F)(F)F)cc3)cs2)cc1O', 'ΔTm', 1.2),
  ('O=C(O)c1ccc(NC(=S)Nc2nc(-c3ccc([N+](=O)[O-])c(S(=O)(=O)NCc4ccccc4)c3)cs2)cc1O', 'ΔTm', 1.8),
  ('O=C(O)c1ccc(NC(=S)Nc2nc(-c3ccc([N+](=O)[O-])cc3F)cs2)cc1O', 'ΔTm', 1.6);

A. CC(=O)Nc1cccc(-c2csc(NC(=S)Nc3ccc(C(=O)O)c(O)c3)n2)c1
B. O=C(O)c1ccc(NC(=S)Nc2nc(-c3ccc(O)cc3)cs2)cc1O
C. CC(=O)Nc1ccc(-c2csc(NC(=S)Nc3ccc(C(=O)O)c(O)c3)n2)cc1
D. CCOC(=O)c1ccc(Nc2nc(-c3ccc(NC(C)=O)cc3)cs2)cc1O
Ask | // smallest ΔTm at index 0, largest at the end Hello, could you send the labels back in the order asked? Thank you.
Reply | D, B, A, C
(D: 0.12 °C, B: 0.8 °C, A: 1.5 °C, C: 2.5 °C)

1. N#Cc1ccc(-c2csc(NC(=S)Nc3ccc(C(=O)O)c(O)c3)n2)cc1
2. Cc1cccc(-c2csc(NC(=S)Nc3ccc(C(=O)O)c(O)c3)n2)c1
3. O=C(O)c1ccc(NC(=S)Nc2nc(-c3cccc(O)c3)cs2)cc1O
Ask | // smallest ΔTm at index 0, largest at the end Hello, could you send the labels back in the order asked? Thank you.
Reply | 3, 2, 1
(3: 0.72 °C, 2: 1.2 °C, 1: 2.1 °C)

1. COc1ccc(-c2csc(NC(=S)Nc3ccc(C(=O)O)c(O)c3)n2)cc1
2. Cc1ccc(-c2csc(NC(=S)Nc3ccc(C(=O)O)c(O)c3)n2)cc1
Ask | // which entry has the larger ΔTm value, 1 or 2 ? Kindly give the label for the entry you pick.
Reply | 2
(2: 1.4 °C, 1: 0.9 °C)

P. O=C(O)c1ccc(NC(=S)Nc2nc(-c3ccccc3F)cs2)cc1O
Q. N#Cc1ccc(-c2csc(NC(=S)Nc3ccc(C(=O)O)c(O)c3)n2)cc1F
Ask | // which entry has the larger ΔTm value, P or Q ? Kindly give the label for the entry you pick.
Reply | Q
(Q: 1.8 °C, P: 1 °C)

* * *

target: NAD-dependent protein deacylase sirtuin-5, mitochondrial (Homo sapiens, UniProt Q9NXA8)
readout: IC50 (µM)
Just the number please, in µM, no unit attached.

Ask | What is its IC50 for NAD-dependent protein deacylase sirtuin-5, mitochondrial (Homo sapiens, UniProt Q9NXA8)? Entry: CC(=O)Nc1ccc(-c2csc(Nc3ccc(C(=O)O)cc3)n2)cc1
Reply | 201

* * *

molecular target: NAD-dependent protein deacylase sirtuin-5, mitochondrial (Homo sapiens); test: Stabilization of human SIRT5 assessed as change in melting temperature at 100 uM by thermal shift assay
readout: ΔTm (°C)

INSERT INTO results (compound_structure, experimental_result) VALUES
  ('O=C(O)c1ccc(NC(=S)Nc2nc(-c3ccc(F)cc3)cs2)cc1O', 1.3),
  ('O=C(O)c1ccc(NC(=S)Nc2nc(-c3ccc([N+](=O)[O-])cc3)cs2)cc1O', 1.8),
  ('O=C(O)c1ccc(NC(=S)Nc2nc(-c3ccc(F)cc3F)cs2)cc1O', 1.9),
  ('O=C(O)c1ccc(NC(=S)Nc2nc(-c3ccc(F)c(S(=O)(=O)NCc4ccccc4)c3)cs2)cc1O', 1.9),
  ('O=C(O)c1ccc(NC(=S)Nc2nc(-c3ccc(Cl)cc3)cs2)cc1O', 1.1);

1. O=C(O)c1ccc(NC(=S)Nc2nc(-c3ccc(Br)cc3)cs2)cc1O
2. N#Cc1ccc(-c2csc(NC(=S)Nc3ccc(C(=O)O)c(O)c3)n2)c(F)c1
Ask | Please indicate which has the smaller reported ΔTm: 1 , or 2 . Kindly give the label for the entry you pick.
Reply | 1

a. CC(=O)Nc1ccccc1-c1csc(NC(=S)Nc2ccc(C(=O)O)c(O)c2)n1
b. O=C(O)c1ccc(NC(=S)Nc2nc(-c3ccc([N+](=O)[O-])c(F)c3)cs2)cc1O
Ask | Please indicate which has the smaller reported ΔTm: a , or b . Kindly give the label for the entry you pick.
Reply | a
(a: 0.9 °C, b: 1.8 °C)

* * *

molecular target: NAD-dependent protein deacylase sirtuin-5, mitochondrial (Homo sapiens, UniProt Q9NXA8); assay: Stabilization of human SIRT5 assessed as change in melting temperature at 100 uM by thermal shift assay
readout: ΔTm (°C)

INSERT INTO results (compound_structure, study_target, experimental_result) VALUES
  ('CNS(=O)(=O)c1ccc(-c2csc(NC(=S)Nc3ccc(C(=O)O)c(O)c3)n2)cc1', 'NAD-dependent protein deacylase sirtuin-5, mitochondrial (Homo sapiens, UniProt Q9NXA8)', 0.9),
  ('COc1cccc(-c2csc(NC(=S)Nc3ccc(C(=O)O)c(O)c3)n2)c1', 'NAD-dependent protein deacylase sirtuin-5, mitochondrial (Homo sapiens, UniProt Q9NXA8)', 0.9),
  ('O=C(O)c1ccc(NC(=S)Nc2nc(-c3cccc(C(F)(F)F)c3)cs2)cc1O', 'NAD-dependent protein deacylase sirtuin-5, mitochondrial (Homo sapiens, UniProt Q9NXA8)', 1.1);
